# tested-on: the molecule itself
# method: SEC; single purified protein on Superdex 200 10/300 GL, 20 mM Tris-HCl pH 8, 150 mM NaCl, purified without reducing agent (non-reducing) or with 2.5 mM DTT; re-runs of peaks; dimer to monomers
observation-type: stoichiometry N

- protein: "S. cerevisiae Gpi8 (23-306aa), E. coli SHuffle expressed (domain or fragment, UniProt P49018 23-306, looked up, Same construct as m12, other E. coli strain (constitutively expresses DsbC); also called E. coli Shuffle-expressed Gpi8) NNTDAAHEVIATNTNNWAVLVSTSRFWFNYRHMANVLSMYRTVKRLGIPDSQIILMLSDDVACNSRNLFPGSVFNNKDHAIDLYGDSVEVDYRGYEVTVENFIRLLTDRWTEDHPKSKRLLTDENSNIFIYMTGHGGDDFLKFQDAEEIASEDIADAFQQMYEKKRYNEIFFMIDTCQANTMYSKFYSPNILAVGSSEMDESSYSHHSDVEIGVAVIDRFTYYCLDFLEQIDKNSTLTLQDLFDSFTFEKIHSHVGVRTDLFDRNPSEVLITDFFANVQNVIPD"
  stoichiometry N: 2

# input for lookup
The protein listed as S. cerevisiae Gpi8 (23-306aa), caspase-like domain, insect cell expressed (N-glycosylated) (domain or fragment, UniProt P49018 23-306, looked up, N-glycosylated (two predicted N-glycosylation sites in 23-306), The construct has an N-terminal gp67 signal peptide for secretion (pFastBac-dual); Runs as a disulfide-linked dimer; also called insect cell expressed Gpi8; not shown: 6xHis, C-terminal, kept) NNTDAAHEVIATNTNNWAVLVSTSRFWFNYRHMANVLSMYRTVKRLGIPDSQIILMLSDDVACNSRNLFPGSVFNNKDHAIDLYGDSVEVDYRGYEVTVENFIRLLTDRWTEDHPKSKRLLTDENSNIFIYMTGHGGDDFLKFQDAEEIASEDIADAFQQMYEKKRYNEIFFMIDTCQANTMYSKFYSPNILAVGSSEMDESSYSHHSDVEIGVAVIDRFTYYCLDFLEQIDKNSTLTLQDLFDSFTFEKIHSHVGVRTDLFDRNPSEVLITDFFANVQNVIPD shows stoichiometry N equal to 2
